- targetUnderTest: Thymidylate synthase (Homo sapiens, UniProt P04818)
- Sequence (P04818 whole entry): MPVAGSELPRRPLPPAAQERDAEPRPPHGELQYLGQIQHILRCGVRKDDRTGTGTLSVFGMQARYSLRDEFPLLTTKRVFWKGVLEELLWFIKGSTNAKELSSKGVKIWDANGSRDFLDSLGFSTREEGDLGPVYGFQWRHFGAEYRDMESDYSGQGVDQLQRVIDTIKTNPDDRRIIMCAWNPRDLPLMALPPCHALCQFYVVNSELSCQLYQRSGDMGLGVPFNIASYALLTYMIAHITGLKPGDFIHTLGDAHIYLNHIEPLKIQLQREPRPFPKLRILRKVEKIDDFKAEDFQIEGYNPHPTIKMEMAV
pKi: −log10 of the molar value.
propertyName: pKi

What does the record list as pKi for O=C1OC(c2ccc(O)c(F)c2)(c2ccc(O)c(F)c2)c2ccc(Cl)c3cccc1c23 [Phenolnaphthalein derivative, 3] ?
< 3.61

====

Protein target, amino acids: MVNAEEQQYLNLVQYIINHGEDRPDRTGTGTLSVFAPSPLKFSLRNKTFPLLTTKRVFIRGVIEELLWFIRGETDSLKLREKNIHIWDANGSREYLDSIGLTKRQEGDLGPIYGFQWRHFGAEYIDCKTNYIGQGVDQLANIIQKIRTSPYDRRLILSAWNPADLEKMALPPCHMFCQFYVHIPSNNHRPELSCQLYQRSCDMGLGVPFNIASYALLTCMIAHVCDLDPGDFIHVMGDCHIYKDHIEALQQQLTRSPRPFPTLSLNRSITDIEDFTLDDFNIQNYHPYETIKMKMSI
Please go through the items and note down their Ki.
Numbers only, in µM.

lineNotation | unitAbbrev | experimentalValue
O=C1OC(c2cc(Br)c(O)c(Br)c2)(c2cc(Br)c(O)c(Br)c2)c2c1ccc1ccccc21 | µM | 32.7

Then there is this molecule:
What does the record list as Ki for O=C1OC(c2ccc(O)c(F)c2)(c2ccc(O)c(F)c2)c2ccc(Cl)c3cccc1c23 ?
22

====

- targetUnderTest: Bifunctional dihydrofolate reductase-thymidylate synthase (Leishmania major, UniProt P07382)
- Sequence (P07382 whole entry): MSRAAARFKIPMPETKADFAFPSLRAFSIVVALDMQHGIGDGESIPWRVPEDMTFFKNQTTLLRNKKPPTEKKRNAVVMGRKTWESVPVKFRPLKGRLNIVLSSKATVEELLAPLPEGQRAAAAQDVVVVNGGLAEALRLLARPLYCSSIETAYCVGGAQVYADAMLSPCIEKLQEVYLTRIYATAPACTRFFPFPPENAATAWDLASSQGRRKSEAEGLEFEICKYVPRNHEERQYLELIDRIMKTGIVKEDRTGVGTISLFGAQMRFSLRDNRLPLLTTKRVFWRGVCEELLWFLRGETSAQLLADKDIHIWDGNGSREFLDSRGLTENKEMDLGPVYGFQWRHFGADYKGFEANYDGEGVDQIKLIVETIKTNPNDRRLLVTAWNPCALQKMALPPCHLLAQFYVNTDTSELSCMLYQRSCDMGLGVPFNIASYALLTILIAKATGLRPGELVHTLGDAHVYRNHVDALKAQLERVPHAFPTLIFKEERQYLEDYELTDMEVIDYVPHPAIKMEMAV
- methodNotes: Inhibition Assay
- measurementConditions: pH 7; 20 °C
Please go through the items and note down their Ki.

In the examples that follow, each entry is paired with its recorded Ki.
compound | Ki
O=C1OC(c2cc(Br)c(O)c(Br)c2)(c2cc(Br)c(O)c(Br)c2)c2c1ccc1ccccc21 [Phenolnaphthalein derivative, 5] | 41 µM
O=C1OC(c2ccc(O)c(Br)c2)(c2ccc(O)c(Br)c2)c2ccc(Cl)c3cccc1c23 [Phenolnaphthalein derivative, 2] | > 1080 µM
O=C1OC(c2ccc(O)c(F)c2)(c2ccc(O)c(F)c2)c2cccc3cccc1c23 [Phenolnaphthalein derivative, 1] | > 1780 µM
O=C1OC(c2ccc(O)c(Cl)c2)(c2ccc(O)c(Cl)c2)c2cccc3cccc1c23 | > 1080 µM
C#CCN(Cc1ccc2nc(N)[nH]c(=O)c2c1)c1ccc(C(=O)N[C@@H](CCC(=O)O)C(=O)O)cc1 | 0.08 µM

Record Ki per entry; entries follow.
1. O=C1OC(c2ccc(O)c(Br)c2)(c2ccc(O)c(Br)c2)c2c1ccc1ccccc21 [Phenolnaphthalein derivative, 4]
2. O=C1OC(c2ccc(O)c(F)c2)(c2ccc(O)c(F)c2)c2ccc(Cl)c3cccc1c23 [Phenolnaphthalein derivative, 3]

1: 63 µM; 2: > 1080 µM
